Biological target: T1, MAP1LC3A ATG8 domain (human)
T1 construct: MAP1LC3A, human, ATG8 domain; source: E. coli BL21 (DE3) Gold, purified (glutathione or Ni2+ beads)
Assay: fluorescence polarisation; saturation binding: dilution series of the protein domain added to 10 nM FITC-labelled peptide; 50 mM sodium phosphate pH 7.4, 0.05% Tween (protein dialysed in 50 mM sodium phosphate with 1 mM DTT; CASK kinase domain with 100 mM NaCl in addition); quadratic fit; technical triplets
Conditions: both partners purified
pKd: −log10 of the molar value. Where no end group is shown, it is not given here.
Readout Type: pKd

{"Binder": "DDDWTHLSSK (also: FITC label, position not given here) [FITC-SQSTM1]", "Reported": 6.17}
